Target: MST1 (Homo sapiens)
Sequence (Q13043 1-487): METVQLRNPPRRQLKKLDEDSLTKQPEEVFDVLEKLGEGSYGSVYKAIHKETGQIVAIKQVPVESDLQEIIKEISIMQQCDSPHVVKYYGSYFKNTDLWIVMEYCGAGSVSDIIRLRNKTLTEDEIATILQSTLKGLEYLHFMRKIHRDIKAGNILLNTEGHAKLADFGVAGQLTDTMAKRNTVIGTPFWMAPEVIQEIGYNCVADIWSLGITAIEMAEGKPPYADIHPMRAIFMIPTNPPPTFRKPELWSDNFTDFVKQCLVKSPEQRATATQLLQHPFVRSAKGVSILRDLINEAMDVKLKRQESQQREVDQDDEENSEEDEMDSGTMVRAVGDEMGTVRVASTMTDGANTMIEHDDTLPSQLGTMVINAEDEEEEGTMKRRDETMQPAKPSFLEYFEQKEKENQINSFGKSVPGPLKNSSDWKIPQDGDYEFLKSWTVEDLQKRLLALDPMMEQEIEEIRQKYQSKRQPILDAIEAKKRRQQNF
Assay: In vitro measurement of MST1 inhibition (Z′-Lyte kinase assay)
Format: biochemical
Conditions: 50 μM ATP; read-out: IC50 (μM) 50 μM ATP
For each of the molecules below, state its IC50.

Query: For CCN(C)S(=O)(=O)c1ccc(-c2cnc(N)c(-c3ccc4c(c3)CCNC4=O)c2)cc1 , what is its reported IC50?
Response: < 0.01 µM

Query: For N#C[C@]1(c2ccc(-c3cnc(N)c(-c4ccc5c(c4)CCNC5=O)n3)cc2)[C@@H]2COC[C@@H]21 , what is its reported IC50?
Response: < 0.01 µM

Query: For CCOC(=O)Cc1ccc(-c2cnc(N)c(-c3ccc4c(c3)CCNC4=O)n2)cc1 , what is its reported IC50?
Response: < 0.05 µM

Query: For CN(C1CC1)S(=O)(=O)c1ccc(-c2cnc(N)c(-c3ccc4c(c3)C(C)(C)CNC4=O)n2)cc1 , what is its reported IC50?
Response: < 0.01 µM
